Listed here: items and their measured inhibition.
- Test system: Salmonella enterica subsp. enterica serovar Typhimurium
- assay_name: Antioxidant activity in Salmonella typhimurium TA102 harboring […] mutant assessed as inhibition of t-BuO2H-dependant mutant formation at 30 uM preincubated with compound followed by t-BuO2H addition after 48 hrs by Ames test
- Format: functional
endpoint_label: inhibition (%)

1) Cc1c(C)c2c(c(C)c1O)CCC(C)(C(=O)NCC1CC(C)(C)N([O])C1(C)C)O2 (stereo not given) | 17.7
2) Cc1c(C)c2c(c(C)c1OC(=O)CCC(=O)O)CCC(C)(C(=O)NCC1CC(C)(C)N([O])C1(C)C)O2 (stereo not given) | 18
3) Cc1c(C)c2c(c(C)c1OC(=O)CCC(=O)NC1CC(C)(C)N([O])C(C)(C)C1)CCC(C)(C(=O)NC1CC(C)(C)N([O])C(C)(C)C1)O2 (stereo not given) | 25
4) CC1(C)CC(CNC(=O)CCC(=O)O)C(C)(C)N1[O] (stereo not given) | 11
5) Cc1c(C)c2c(c(C)c1OC(=O)CCC(=O)NC1CC(C)(C)N([O])C1(C)C)CC[C@@](C)(CCC[C@H](C)CCC[C@H](C)CCCC(C)C)O2 (stereo not given in full) | 12
6) Cc1c(C)c2c(c(C)c1OC(=O)CCC(=O)NCC1CC(C)(C)N([O])C1(C)C)CC[C@@](C)(CCC[C@H](C)CCC[C@H](C)CCCC(C)C)O2 (stereo not given in full) | 24
7) CC1(C)CC(NC(=O)CCC(=O)O)C(C)(C)N1[O] (stereo not given) | 52
8) Cc1c(C)c2c(c(C)c1OC(=O)CCC(=O)O)CCC(C)(C(=O)NC1CC(C)(C)N([O])C(C)(C)C1)O2 (stereo not given) | 19
9) Cc1c(C)c2c(c(C)c1OC(=O)CCC(=O)O)CC[C@@](C)(CCC[C@H](C)CCC[C@H](C)CCCC(C)C)O2 [(+)-ALPHA-TOCOPHERYL SUCCINATE] | 63.6
10) Cc1c(C)c2c(c(C)c1O)CCC(C)(C(=O)NC1CC(C)(C)N([O])C1(C)C)O2 (stereo not given) | 62
11) Cc1c(C)c2c(c(C)c1O)CCC(C)(C(=O)O)O2 (stereo not given) | 4.7
12) CC1(C)CC(NC(=O)CCC(=O)O)CC(C)(C)N1[O] | 41
13) Cc1c(C)c2c(c(C)c1OC(=O)CCC(=O)NC1CC(C)(C)N([O])C1(C)C)CCC(C)(C(=O)NC1CC(C)(C)N([O])C1(C)C)O2 (stereo not given) | 13
14) Cc1c(C)c2c(c(C)c1OC(=O)CCC(=O)NC1CC(C)(C)N([O])C(C)(C)C1)CC[C@@](C)(CCC[C@H](C)CCC[C@H](C)CCCC(C)C)O2 | 20
15) Cc1c(C)c2c(c(C)c1OC(=O)CCC(=O)NCC1CC(C)(C)N([O])C1(C)C)CCC(C)(C(=O)NCC1CC(C)(C)N([O])C1(C)C)O2 (stereo not given) | 20

====

- assay_name: Cytotoxicity against hamster AG17-1 cells assessed as reduction in cell viability at 300 uM after 72 hrs by MTT assay
- Type: toxicity, cell-based, Cricetulus griseus
- particulars: Chinese hamster, read-out: INH
endpoint_label: cytotoxicity at 72 h, 300 µM (%)

1. Cc1c(C)c2c(c(C)c1OC(=O)CCC(=O)O)CCC(C)(C(=O)NCC1CC(C)(C)N([O])C1(C)C)O2 (configuration not stated) | 30
2. Cc1c(C)c2c(c(C)c1OC(=O)CCC(=O)O)CCC(C)(C(=O)O)O2 (configuration not stated) | 27
3. CC1(C)CC(NC(=O)CCC(=O)O)C(C)(C)N1[O] (configuration not stated) | 19
4. Cc1c(C)c2c(c(C)c1OC(=O)CCC(=O)NC1CC(C)(C)N([O])C1(C)C)CC[C@@](C)(CCC[C@H](C)CCC[C@H](C)CCCC(C)C)O2 (some centres not stated) | 38
5. CC1(C)CC(NC(=O)CCC(=O)O)CC(C)(C)N1[O] | 0
6. CC1(C)CC(CNC(=O)CCC(=O)O)C(C)(C)N1[O] (configuration not stated) | 0
7. Cc1c(C)c2c(c(C)c1OC(=O)CCC(=O)O)CCC(C)(C(=O)NC1CC(C)(C)N([O])C1(C)C)O2 (configuration not stated) | 27
8. Cc1c(C)c2c(c(C)c1OC(=O)CCC(=O)NCC1CC(C)(C)N([O])C1(C)C)CC[C@@](C)(CCC[C@H](C)CCC[C@H](C)CCCC(C)C)O2 (some centres not stated) | 32
9. Cc1c(C)c2c(c(C)c1OC(=O)CCC(=O)O)CCC(C)(C(=O)NC1CC(C)(C)N([O])C(C)(C)C1)O2 (configuration not stated) | 36
10. Cc1c(C)c2c(c(C)c1O)CCC(C)(C(=O)O)O2 (configuration not stated) | 0
11. Cc1c(C)c2c(c(C)c1O)CC[C@@](C)(CCC[C@H](C)CCC[C@H](C)CCCC(C)C)O2 | 12
12. Cc1c(C)c2c(c(C)c1OC(=O)CCC(=O)NC1CC(C)(C)N([O])C(C)(C)C1)CC[C@@](C)(CCC[C@H](C)CCC[C@H](C)CCCC(C)C)O2 | 30
